target_system: Serine/threonine-protein kinase pim-1 (Homo sapiens)
attribute_measured: pKi
Just so you know, pKi here is -log10 of the concentration in molar units; reply with that number alone.

Recorded pKi for `CC(C)(C)Nc1nnc(-c2ccc3[nH]cc(-c4nccc(C5CC5)n4)c3c2)o1` on Serine/threonine-protein kinase pim-1 (Homo sapiens) was 9.26

---

target_system: Serine/threonine-protein kinase pim-1 (Homo sapiens, UniProt P11309)
Sequence (P11309 whole entry): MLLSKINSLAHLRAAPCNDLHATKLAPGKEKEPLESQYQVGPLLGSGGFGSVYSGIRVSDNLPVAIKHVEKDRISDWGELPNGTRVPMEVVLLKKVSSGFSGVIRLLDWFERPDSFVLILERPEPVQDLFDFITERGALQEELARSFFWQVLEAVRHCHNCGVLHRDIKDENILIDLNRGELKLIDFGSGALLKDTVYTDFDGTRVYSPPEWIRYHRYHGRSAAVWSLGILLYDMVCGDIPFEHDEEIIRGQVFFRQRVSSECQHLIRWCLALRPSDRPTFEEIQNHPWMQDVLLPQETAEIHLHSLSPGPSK
assay: Inhibition of human PIM1 by discoverX kinome scan assay
Below, each entry is listed with its recorded pIC50.
Just so you know, pIC50 here is -log10 of the concentration in molar units; reply with that number alone.

Past entries and their recorded results:
N#Cc1c(-c2ccco2)cc(-c2ccc(N3C(=O)c4ccccc4C3=O)cc2)nc1N :: 6.20
Cc1nc2sc(C(=O)Nc3ccc(F)c(Cl)c3)c(N)c2c(C)c1Br :: 4.45
COc1ccc(N2CCN(C(=O)c3sc4nc(C)c(Br)c(C)c4c3N)CC2)cc1 :: 4.90
N#Cc1c(-c2ccccc2O)cc(-c2ccc(N3C(=O)c4ccccc4C3=O)cc2)nc1N :: 5.01

Query molecule follows.
pIC50 in this record for `N#Cc1nnc2c3c(-c4ccccc4Cl)c(C#N)c(=O)[nH]c3nn2c1N` : 4.37
